experiment: LIVE/DEAD viability of RiBn-treated HEK293 cells (fluorescence microscopy and flow cytometry); assay type: cell-based, human; details: human, highest RiBn dose, ~24 hours, calcein AM, read-out: cell viability by flow cytometry
Peptide text beside a SMILES is read from it. * marks the point of attachment. boroAla = C[C@H](N*)B(O)O
measurement_label: viability (%)

>>> recorded_value("CSCC[C@H](NC(=O)[C@H](CO)NC(=O)[C@H](CCCNC(=N)N)NC(=O)[C@H](Cc1ccccc1)NC(=O)[C@H](CCCNC(=N)N)NC(=O)[C@H](CCCCN)NC(C)=O)C(=O)N[C@@H](CCC(N)=O)C(=O)N[C@@H](Cc1ccc(O)cc1)C(=O)N[C@@H](CO)C(=O)N[C@@H](C)B(O)O [RiBn] (Ac-KRFRSMQYS-boroAla)")
92.4
